System under test: T1, recombinant memapsin 2 (M2pd), auto-activated from pro-M2pd at pH 4.0 (human, UniProt P56817 25-419, limits assumed)
T1 construct: also called beta-secretase
T1 sequence (P56817 25-419 limits assumed): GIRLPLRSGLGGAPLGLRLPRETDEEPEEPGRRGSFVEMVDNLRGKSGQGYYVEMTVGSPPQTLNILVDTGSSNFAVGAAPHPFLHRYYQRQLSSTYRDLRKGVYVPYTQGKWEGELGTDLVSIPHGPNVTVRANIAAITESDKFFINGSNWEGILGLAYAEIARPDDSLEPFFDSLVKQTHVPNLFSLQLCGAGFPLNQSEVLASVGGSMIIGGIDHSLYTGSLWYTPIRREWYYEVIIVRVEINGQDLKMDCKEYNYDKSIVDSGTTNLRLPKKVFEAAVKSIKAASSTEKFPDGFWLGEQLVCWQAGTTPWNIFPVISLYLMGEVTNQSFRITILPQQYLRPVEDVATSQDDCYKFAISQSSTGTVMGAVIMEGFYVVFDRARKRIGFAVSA
Test description: Ki quoted for the inhibitor used in the crystal trials; assay not described at this place
Where no end group is shown, it is not given here.
Experimental readout: pKi
One number for each entry, as −log10 of the molar value.

Prompt: For EVNLAAEF (also: Leu-Ala peptide bond replaced by hydroxyethylene isostere -CH(OH)-CH2-) [OM99-2: Glu-Val-Asn-Leu*Ala-Ala-Glu-Phe] , what is its reported pKi?
Response: 8.00

The measured values listed here are drawn from patent US20020049303A1.
